System: Trypanosoma cruzi
Experiment: Antitrypanosomal activity against Trypanosoma cruzi
Type: functional, organism-based
value.type: IC50 (µM)
Give just the numeric value; µM need not be written.

response.value for O=S(=O)(c1ccc(Cl)cc1)N1CCNCC1 (field: IC50) = 3.7

###

Assay: Selectivity index, ratio of CC50 for human THP-1 cells to IC50 for Leishmania braziliensis MHOM/BR/75/M2904 expressing red fluorescence protein infected in THP-1 cells
Assay type: toxicity, cell-based
Settings: read-out: Ratio CC50/IC50
value.type: selectivity ratio
Reply briefly: the number, and no unit.

Before answering, review these 3 worked examples.
• CN(C)CCOc1cccc(N2CCN(S(=O)(=O)c3ccc(Cl)cc3)CC2)c1 = 4
• N#CCOc1ccc(N2CCN(S(=O)(=O)c3ccc(Cl)cc3)CC2)cc1 = 1
• COc1ccc(S(=O)(=O)N2CCN(c3ccc(OCCN(C)C)cc3)CC2)cc1 = 6

The record that follows has no selectivity ratio shown yet.
For this compound ( CN(C)CCOc1ccc(N2CCN(S(=O)(=O)c3ccc(F)cc3)CC2)cc1 ), measured selectivity ratio is 48
